compounds and their reported inhibition
# ASSAY_SYSTEM: Muscarinic acetylcholine receptor (Rattus norvegicus) (UniProt P08482+P08483+P08485+P08911+P10980)
# METHOD_NOTES: Inhibitory effect on muscarinic acetylcholine receptor binding affinity at a concentration of (10e -6)M
# Type: protein assay
MEASURED_METRIC: inhibition

INSERT INTO assay_data (compound, measured_metric, result) VALUES
  ('CCN(CC)CCNC1c2cc(OC(C)C)ccc2OCc2ncccc21 (stereo not drawn)', 'inhibition', '3%'),
  ('COc1ccc2c(c1)C(NCCCN(C)C)c1cccnc1CO2 (stereo not drawn)', 'inhibition', '1%'),
  ('COc1ccc2c(c1)C(NCCN1CCOCC1)c1cccnc1CO2 (stereo not drawn)', 'inhibition', '0%');

====

# ASSAY_SYSTEM: Muscarinic acetylcholine receptor (Rattus norvegicus) (UniProt P08482+P08483+P08485+P08911+P10980)
# METHOD_NOTES: Inhibitory effect on muscarinic acetylcholine receptor binding affinity at a concentration of (10e -5)M
# Type: protein assay
The compounds listed here are annotated with their inhibition.
MEASURED_METRIC: inhibition

INSERT INTO assay_data (compound, measured_metric, result) VALUES
  ('CCN(CC)CCNC1c2cccnc2COc2c(OC)cccc21 (centres undefined)', 'inhibition', '37%'),
  ('CCN(CC)CCNC1c2cc(N(C)C)ccc2OCc2ncccc21 (centres undefined)', 'inhibition', '19%'),
  ('COc1ccc2c(c1)C(NN1CCN(C)CC1)c1cccnc1CO2 (centres undefined)', 'inhibition', '7%'),
  ('CCNCCNC1c2cc(OC)ccc2OCc2ncccc21 (centres undefined)', 'inhibition', '1%'),
  ('Cc1cccc(C)c1OCC(C)N (centres undefined)', 'inhibition', '-3%'),
  ('CCN(CC)CC/C=C1/c2ccccc2OCc2ncccc21', 'inhibition', '80%'),
  ('CCN(CC)CC(=O)NC1c2cc(OC)ccc2OCc2ncccc21 (centres undefined)', 'inhibition', '1%'),
  ('CCN(CC)CCNC1c2cc(OC(C)C)ccc2OCc2ncccc21 (centres undefined)', 'inhibition', '12%'),
  ('COc1ccc2c(c1)C(NCCN1CCOCC1)c1cccnc1CO2 (centres undefined)', 'inhibition', '0%'),
  ('CCN(CC)CC/C=C1\c2cc(OC)ccc2OCc2ncccc21', 'inhibition', '27%'),
  ('COc1ccc2c(c1)C(NCCCN(C)C)c1cccnc1CO2 (centres undefined)', 'inhibition', '5%'),
  ('CCN(CC)CC/C=C1/c2cc(OC)ccc2OCc2ncccc21', 'inhibition', '26%'),
  ('CCN(CC)CCNC1c2ccc(OC)cc2OCc2ncccc21 (centres undefined)', 'inhibition', '7%'),
  ('COc1ccc2c(c1)C(NCCN1CCCC1)c1cccnc1CO2 (centres undefined)', 'inhibition', '12%'),
  ('COc1ccc2c(c1)C(NCCN1C(C)CCCC1C)c1cccnc1CO2 (centres undefined)', 'inhibition', '11%'),
  ('CCN(CC)CCNC1c2cc(O)ccc2OCc2ncccc21 (centres undefined)', 'inhibition', '-1%'),
  ('CCN(CC)CC/C=C1\c2ccccc2OCc2ncccc21', 'inhibition', '45%'),
  ('CCN(CC)CCSC1c2cc(OC)ccc2OCc2ncccc21 (centres undefined)', 'inhibition', '20%'),
  ('CCN1CCCC1CNC1c2cc(OC)ccc2OCc2ncccc21 (stereo in doubt; 27)', 'inhibition', '25%');
